Ref: patent US12091399B2

Entries with reported pIC50 on Human PKK (Homo sapiens (Human))
Sequence (P03952 391-638): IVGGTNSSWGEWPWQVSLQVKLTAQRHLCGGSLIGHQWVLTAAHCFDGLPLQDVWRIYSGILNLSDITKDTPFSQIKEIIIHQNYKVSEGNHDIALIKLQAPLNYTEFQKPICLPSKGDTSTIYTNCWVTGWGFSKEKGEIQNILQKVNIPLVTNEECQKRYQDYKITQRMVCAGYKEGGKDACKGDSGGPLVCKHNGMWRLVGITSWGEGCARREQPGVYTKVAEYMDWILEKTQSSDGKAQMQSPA
Sequence (P03952 20-390 partner): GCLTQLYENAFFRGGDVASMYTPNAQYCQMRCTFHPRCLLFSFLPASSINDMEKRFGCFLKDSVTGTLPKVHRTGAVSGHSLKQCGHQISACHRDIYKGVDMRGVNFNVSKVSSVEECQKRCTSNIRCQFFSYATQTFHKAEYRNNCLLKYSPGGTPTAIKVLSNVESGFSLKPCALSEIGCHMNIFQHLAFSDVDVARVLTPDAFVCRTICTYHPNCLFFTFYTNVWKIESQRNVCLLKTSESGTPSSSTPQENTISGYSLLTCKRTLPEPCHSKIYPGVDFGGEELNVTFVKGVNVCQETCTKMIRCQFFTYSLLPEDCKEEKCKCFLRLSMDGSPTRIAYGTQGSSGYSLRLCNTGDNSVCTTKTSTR
pIC50: −log10 of the molar value.

compound	measurementTarget	pIC50
Cc1cc(Cl)cc(CNC(=O)c2cnn(Cc3ccc(N4CC5CC5C4)nc3C)c2)c1-n1cnnn1 (stereo not shown)	Human PKK (Homo sapiens (Human))	7.09
Cc1nc(N2CC3(CC3)C2)ccc1Cn1cc(C(=O)NCc2c(F)cccc2-n2cnnn2)cn1	Human PKK (Homo sapiens (Human))	8.40
Cc1nc(N2CC3C(C2)C3(F)F)ncc1Cn1cc(C(=O)NCc2cc(Cl)ccc2-n2cnnn2)c(C)n1 (stereo not shown)	Human PKK (Homo sapiens (Human))	9.00
Cc1nc(N2CC3C(C2)C3(F)F)ncc1Cn1cc(C(=O)NCc2cc(Cl)ccc2-n2cnnn2)c2cncnc21 (stereo not shown)	Human PKK (Homo sapiens (Human))	8.70

====

- measurementTarget: Human PKK (Homo sapiens (Human))
pIC50: −log10 of the molar value.
Lab note: compare pIC50 against 8. Equal or greater, write 1. Smaller, write -1.

compound	measurementTarget	class
Cc1nc(N2CC3(CC(O)C3)C2)ccc1Cn1cc(C(=O)NCc2cc(Cl)ccc2-n2cnnn2)cn1	Human PKK (Homo sapiens (Human))	-1
Cc1nc(N2CC3(CC3)C2)ncc1Cn1cc(C(=O)NCc2cc(Cl)ccc2-n2cnnn2)c2cncnc21	Human PKK (Homo sapiens (Human))	1
O=C(NCc1cc(Cl)ccc1-n1cnnn1)c1cn(Cc2ccc(N3CC4CC4C3)nc2)c2ncccc12 (stereo not shown)	Human PKK (Homo sapiens (Human))	1
Cc1nc(N2CC3(CC3)C2)ncc1Cn1cc(C(=O)NCc2c(-n3cnnn3)ccc(Cl)c2F)cn1	Human PKK (Homo sapiens (Human))	1
Cc1nc(N2CC3OCC(N)C3C2)ccc1Cn1cc(C(=O)NCc2cc(Cl)ccc2-n2cnnn2)cn1 (stereo not shown)	Human PKK (Homo sapiens (Human))	-1
Cc1nc(N2CC3CC2CO3)ccc1Cn1cc(C(=O)NCc2cc(Cl)ccc2-n2cnnn2)cn1 (stereo not shown)	Human PKK (Homo sapiens (Human))	-1

====

- measurementTarget: UniProtKB P03952
quantityMeasured: log10(IC50) (log10 of the value in nM)

compound	log10(IC50)
Cc1nc(N2C[C@@H]3[C@@H](C)[C@@H]3C2)ccc1Cn1cc(C(=O)NCc2cc(Cl)ccc2-n2cnnn2)cn1	0.85
Cn1cc(-c2nn(Cc3ccc(N4CC5CC5C4)nc3)cc2C(=O)NCc2cc(Cl)ccc2-n2cnnn2)cn1 (stereo not shown)	-0.15
Cc1nc(N2CC[C@@]3(N)C[C@H]3C2)ccc1Cn1cc(C(=O)NCc2cc(Cl)ccc2-n2cnnn2)cn1	1.79
COCc1nn(Cc2ccc(N3CC4CC4C3)nc2C)cc1C(=O)NCc1c(-n2cnnn2)ccc(Cl)c1F (stereo not shown)	-0.22
Cc1nc(N2CC3C(C2)C3(F)F)ccc1Cn1cc(C(=O)NCc2cc(Cl)ccc2-n2cnnn2)cn1 (stereo not shown)	-0.40
Cc1nc(N2CC3(C2)CC3(F)F)ccc1Cn1cc(C(=O)NCc2cc(Cl)ccc2-n2cnnn2)cn1	0.48
Cc1nc(N2CC3(CCOC3)C2)ccc1Cn1cc(C(=O)NCc2cc(Cl)ccc2-n2cnnn2)cn1	1.34

====

Record type: Ki measurement. Applies to: Human PKK (Homo sapiens (Human), UniProt P03952)

compound	measurementTarget	unitName	Ki
Cc1nc(N2CC3(C2)CC3(F)F)ccc1Cn1cc(C(=O)NCc2cc(Cl)ccc2-n2cnnn2)cn1	Human PKK (Homo sapiens (Human), UniProt P03952)	nM	1
O=C(NCc1cc(Cl)ccc1-n1cnnn1)c1cn(Cc2ccc(N3CC4CC4C3)nc2)c2ncccc12 (stereo not drawn)	Human PKK (Homo sapiens (Human), UniProt P03952)	nM	0.3
Cc1nc(N2CC3CC3C2)ccc1Cn1cc(C(=O)NCc2cc(Cl)ccc2-n2cnnn2)c2cncnc21 (stereo not drawn)	Human PKK (Homo sapiens (Human), UniProt P03952)	nM	0.7

====

Listed compounds paired with reported log10 of IC90
- measurementTarget: PKK in kaolin activated human platelet poor plasma (Homo sapiens (Human), UniProt P03952)
- Sequence (P03952 391-638): as the sequence (P03952 391-638) above
- Sequence (P03952 20-390 partner): as the sequence (P03952 20-390 partner) above
- testName: Inhibition of PKK in kaolin activated human PPP
- Type: biochemical
- conditions: global fit over 25, 75, 250, 750 μg/mL kaolin, 37° C.
quantityMeasured: log10 of IC90 (log10 of the value in nM)

compound	measurementTarget	measuredValue
Cc1nc(N2CC3(CCC3)C2)ccc1Cn1cc(C(=O)NCc2cc(Cl)ccc2-n2cnnn2)cn1	PKK in kaolin activated human platelet poor plasma (Homo sapiens (Human), UniProt P03952)	2.93
Cc1nc(N2C[C@@H]3[C@H](C)[C@@H]3C2)ccc1Cn1cc(C(=O)NCc2cc(Cl)ccc2-n2cnnn2)cn1	PKK in kaolin activated human platelet poor plasma (Homo sapiens (Human), UniProt P03952)	2.40
Cc1nc(N2CCC3(CCC3)C2)ccc1Cn1cc(C(=O)NCc2cc(Cl)ccc2-n2cnnn2)cn1	PKK in kaolin activated human platelet poor plasma (Homo sapiens (Human), UniProt P03952)	3.61
COc1nn(Cc2ccc(N3CC4CC4C3)nc2)cc1C(=O)NCc1cc(Cl)ccc1-n1cnnn1 (stereo not drawn)	PKK in kaolin activated human platelet poor plasma (Homo sapiens (Human), UniProt P03952)	2.85
COc1nn(Cc2ccc(N3CC4CC4C3)nc2C)cc1C(=O)NCc1cc(Cl)ccc1-n1cnnn1 (stereo not drawn)	PKK in kaolin activated human platelet poor plasma (Homo sapiens (Human), UniProt P03952)	2.85
Nc1nn(Cc2ccc(N3CC4CC4C3)nc2)cc1C(=O)NCc1cc(Cl)ccc1-n1cnnn1 (stereo not drawn)	PKK in kaolin activated human platelet poor plasma (Homo sapiens (Human), UniProt P03952)	2.01
Cn1cc(-c2nn(Cc3ccc(N4CC5CC5C4)nc3)cc2C(=O)NCc2cc(Cl)ccc2-n2cnnn2)cn1 (stereo not drawn)	PKK in kaolin activated human platelet poor plasma (Homo sapiens (Human), UniProt P03952)	2.53
COCc1nn(Cc2ccc(N3CC4CC4C3)nc2C)cc1C(=O)NCc1cc(Cl)ccc1-n1cnnn1 (stereo not drawn)	PKK in kaolin activated human platelet poor plasma (Homo sapiens (Human), UniProt P03952)	2.60
Cc1nc(N2CC3CC3C2)ccc1Cn1cc(C(=O)NCc2c(-n3cnnn3)ccc(Cl)c2F)cn1 (stereo not drawn)	PKK in kaolin activated human platelet poor plasma (Homo sapiens (Human), UniProt P03952)	2.23
Cc1nc(N2CC3CC3C2)ccc1Cn1cc(C(=O)NCc2cc(Cl)c(F)cc2-n2cnnn2)cn1 (stereo not drawn)	PKK in kaolin activated human platelet poor plasma (Homo sapiens (Human), UniProt P03952)	3.06
Cc1nc(N2CC3CC3C2)ccc1Cn1cc(C(=O)NCc2cc(Cl)ccc2-n2cnnn2)c2cncnc21 (stereo not drawn)	PKK in kaolin activated human platelet poor plasma (Homo sapiens (Human), UniProt P03952)	2.62
Cc1nc(N2CC3CC3C2)ccc1Cn1cc(C(=O)NCc2cc(Cl)ccc2-n2cnnn2)c(N)n1 (stereo not drawn)	PKK in kaolin activated human platelet poor plasma (Homo sapiens (Human), UniProt P03952)	2.50
O=C(NCc1cc(Cl)ccc1-n1cnnn1)c1cn(Cc2ccc(N3CC4CC4C3)nc2)nc1C(F)F (stereo not drawn)	PKK in kaolin activated human platelet poor plasma (Homo sapiens (Human), UniProt P03952)	2.53
O=C(NCc1cc(Cl)ccc1-n1cnnn1)c1cn(Cc2ccc(N3CC4CC4C3)nc2)c2ncccc12 (stereo not drawn)	PKK in kaolin activated human platelet poor plasma (Homo sapiens (Human), UniProt P03952)	2.03
Cc1nc(N2CC3(CC3)C2)ccc1Cn1cc(C(=O)NCc2cc(Cl)ccc2-n2cnnn2)cn1	PKK in kaolin activated human platelet poor plasma (Homo sapiens (Human), UniProt P03952)	2.32

====

- measurementTarget: Human PKK (Homo sapiens (Human))
pKi: −log10 of the molar value.
The compounds listed here are annotated with their pKi.

compound	pKi
Cc1nc(N2C[C@@H]3[C@H](C)[C@@H]3C2)ccc1Cn1cc(C(=O)NCc2cc(Cl)ccc2-n2cnnn2)cn1	9.10
COc1nn(Cc2ccc(N3CC4CC4C3)nc2C)cc1C(=O)NCc1cc(Cl)ccc1-n1cnnn1 (stereo not shown)	9.00
Cc1nc(N2CC3CC3C2)ccc1Cn1cc(C(=O)NCc2cc(Cl)ccc2-n2cnnn2)c(N)n1 (stereo not shown)	9.30
Cc1nc(N2CC3CC3C2)ccc1Cn1cc(C(=O)NCc2cc(Cl)c(F)cc2-n2cnnn2)cn1 (stereo not shown)	9.10
Cc1nc(N2CC3CC3C2)ccc1Cn1cc(C(=O)NCc2c(-n3cnnn3)ccc(Cl)c2F)cn1 (stereo not shown)	9.70
Cn1cc(-c2nn(Cc3ccc(N4CC5CC5C4)nc3)cc2C(=O)NCc2cc(Cl)ccc2-n2cnnn2)cn1 (stereo not shown)	9.00
COCc1nn(Cc2ccc(N3CC4CC4C3)nc2C)cc1C(=O)NCc1cc(Cl)ccc1-n1cnnn1 (stereo not shown)	9.10

====

Human PKK (Homo sapiens (Human)) measurements of pIC50, listed per entry.
pIC50: −log10 of the molar value.

molecule	pIC50
Cc1nc(N2CCC3CC32)ccc1Cn1cc(C(=O)NCc2cc(Cl)ccc2-n2cnnn2)cn1 (stereo not drawn) [Example 82]	8.15
Nc1nn(Cc2ccc(N3CC4CC4C3)nc2)cc1C(=O)NCc1cc(Cl)ccc1-n1cnnn1 (stereo not drawn) [Example 52]	9.22
Cc1nc(N2CC3CC3C2)ccc1Cn1cc(C(=O)NCc2c(-n3cnnn3)ccc(Cl)c2F)cn1 (stereo not drawn) [Example 3]	9.40
Cc1nc(N2CC3CC3C2)ncc1Cn1cc(C(=O)NCc2cc(Cl)ccc2-n2cnnn2)c2cncnc21 (stereo not drawn) [Example 27]	8.52
Cc1nc(N2CC3CC3C2)ccc1Cn1cc(C(=O)NCc2c(-n3cnnn3)ccc(Cl)c2F)c2cncnc21 (stereo not drawn) [Example 16]	9.22
Cc1nc(N2C[C@@H]3CCN[C@@H]3C2)ccc1Cn1cc(C(=O)NCc2cc(Cl)ccc2-n2cnnn2)cn1 [Example 92]	6.81
Cc1nc(N2CCC3(C2)CC3(F)F)ccc1Cn1cc(C(=O)NCc2cc(Cl)ccc2-n2cnnn2)cn1 (stereo not drawn) [Example 66]	8.05
Cc1nc(N2CC3CC3C2)ccc1Cn1cc(C(=O)NCc2cc(Cl)ccc2-n2cnnn2)c(N)n1 (stereo not drawn) [Example 48]	9.10
Cc1nc(N2CC3CCC(C2)N3)ccc1Cn1cc(C(=O)NCc2cc(Cl)ccc2-n2cnnn2)cn1 [Example 90]	6.92
Cc1nc(N2CC3CC(C2)C3O)ccc1Cn1cc(C(=O)NCc2cc(Cl)ccc2-n2cnnn2)cn1 (stereo not drawn) [Example 68]	8.40
COCc1nn(Cc2ccc(N3CC4C(C3)C4(F)F)nc2C)cc1C(=O)NCc1cc(Cl)ccc1-n1cnnn1 (stereo not drawn) [Example 12]	9.05
Cc1ccc(-n2cnnn2)c(CNC(=O)c2cnn(Cc3ccc(N4CC5CC5C4)nc3C)c2)c1 (stereo not drawn) [Example 5]	9.05
Cc1nc(N2CC3CC3C2)ncc1Cn1cc(C(=O)NCc2cc(Cl)ccc2-n2cnnn2)c(C)n1 (stereo not drawn) [Example 31]	8.70
Cc1nc(N2CC3CC3C2)ccc1Cn1cc(C(=O)NCc2cc(Cl)ccc2-n2cnnn2)c(-c2cnn(C)c2)n1 (stereo not drawn) [Example 42]	9.22
Cc1nc(N2CC3CC(C2)O3)ccc1Cn1cc(C(=O)NCc2cc(Cl)ccc2-n2cnnn2)cn1 [Example 65]	8.00
Cc1nc(N2CC3(CCOCC3)C2)ccc1Cn1cc(C(=O)NCc2cc(Cl)ccc2-n2cnnn2)cn1 [Example 78]	7.72
Cc1nc(N2CCC3(COC3)C2)ccc1Cn1cc(C(=O)NCc2cc(Cl)ccc2-n2cnnn2)cn1 [Example 61]	7.92
COc1nn(Cc2ccc(N3CC4CC4C3)nc2)cc1C(=O)NCc1cc(Cl)ccc1-n1cnnn1 (stereo not drawn) [Example 47]	8.52
Cc1nc(N2CC3C(C2)C3(F)F)ncc1Cn1cc(C(=O)NCc2c(-n3cnnn3)ccc(Cl)c2F)c(C)n1 (stereo not drawn) [Example 33]	9.10
Cc1nc(N2CC3CC3C2)ccc1Cn1cc(C(=O)NCc2c(-n3cnnn3)ccc(Cl)c2F)c(Cl)n1 (stereo not drawn) [Example 7]	9.10
COCc1nn(Cc2cnc(N3CC4(CC4)C3)nc2C)cc1C(=O)NCc1cc(Cl)ccc1-n1cnnn1 [Example 41]	8.22
Cc1nc(N2C[C@@H]3[C@H](C)[C@@H]3C2)ccc1Cn1cc(C(=O)NCc2cc(Cl)ccc2-n2cnnn2)cn1 [Example 87]	9.05
Cc1nc(N2CCC3(CCC3)C2)ccc1Cn1cc(C(=O)NCc2cc(Cl)ccc2-n2cnnn2)cn1 [Example 60]	8.40
Cc1nc(N2CC3CC3C2)ncc1Cn1cc(C(=O)NCc2c(-n3cnnn3)ccc(Cl)c2F)c2cncnc21 (stereo not drawn) [Example 26]	9.05
Cc1nc(N2CC3CC3C2)ccc1Cn1cc(C(=O)NCc2cc(Cl)ccc2-n2cnnn2)c2cccnc21 (stereo not drawn) [Example 50]	8.05
Cc1nc(N2CC3C(C2)C3(F)F)ccc1Cn1cc(C(=O)NCc2cc(Cl)ccc2-n2cnnn2)c2cncnc21 (stereo not drawn) [Example 8]	9.00
Cc1nc(N2CC3C(C2)C3(F)F)ncc1Cn1cc(C(=O)NCc2c(-n3cnnn3)ccc(Cl)c2F)c2cncnc21 (stereo not drawn) [Example 23]	9.00
COc1nn(Cc2ccc(N3CC4CC4C3)nc2C)cc1C(=O)NCc1c(-n2cnnn2)ccc(Cl)c1F (stereo not drawn) [Example 22]	9.00
Cc1nc(N2CC3CC3C2)ccc1Cn1cc(C(=O)NCc2cc(Cl)ccc2-n2cnnn2)c(C)n1 (stereo not drawn) [Example 19]	9.15
Cc1nc(N2CC3(CC3)C2)ncc1Cn1cc(C(=O)NCc2cc(Cl)ccc2-n2cnnn2)cn1 [Example 39]	8.52
